Measured Percent Effect values are reported for all entries that follow.
- System: Wolbachia pipientis
- ASSAY REMARKS: Anti-Wolbachia Cell-Based Screen
- Format: functional
- Set-up: scale not given: in the data most compounds retested in dose-response had high values
- CONDITION DETAILS: 5 µM
Among all 48,000 compounds or so, about 13,000 (27%) showed an effect of 50% or more. The list shows a part of the results.
MEASURED QUANTITY: Percent Effect (%)

# COMPOUND, MEASURED QUANTITY, UNIT STRING, MEAS VALUE
measured = [
    ("O=C(NCc1ccc2nonc2c1)C1CCN(C(=O)C2CCC2)CC1", "Percent Effect", "%", 6.946),
    ("CCC1CN(CC(=O)N2CCN(C(C)=O)CC2)CCN1CCOC (stereo unspecified)", "Percent Effect", "%", 107.2),
    ("Cc1nnc(CCNC(=O)C2CC(=O)N(C(C)(C)C)C2)s1 (stereo unspecified)", "Percent Effect", "%", -24.96),
    ("Cn1nnnc1SCCNC(=O)C1CCN(C(=O)C2CCCC2)CC1", "Percent Effect", "%", 4.852),
    ("Cc1csc(CCCNC(=O)[C@H]2CNC[C@@H](C(=O)N3CCCC3)C2)n1", "Percent Effect", "%", 5.026),
    ("Cn1nccc1CCNC(=O)[C@H]1CNC[C@H](C(=O)N2CCCC2)C1", "Percent Effect", "%", 89.07),
    ("CCC1CN(CCNC(C)=O)CCN1CCOC (stereo unspecified)", "Percent Effect", "%", 1.458),
    ("CCC1CN(CCC(=O)N(C)C)CCN1CCOC (stereo unspecified)", "Percent Effect", "%", -4.079),
    ("Cc1cnccc1NCCNC(=O)[C@H]1CNC[C@H](C(=O)N2CCCC2)C1", "Percent Effect", "%", 142),
    ("Cc1cc(C)nc(CCNC(=O)[C@H]2CNC[C@@H](C(=O)N3CCCC3)C2)n1", "Percent Effect", "%", 4.192),
    ("CN(C)C(=O)N1CC2(CCN(S(=O)(=O)C3CC3)CC2)c2ccccc21", "Percent Effect", "%", -5.03),
]

meta.source: ChEMBL document CHEMBL3988442
